Target: human vWF A1 domain (SEQ ID NO 5) (Homo sapiens, UniProt P04275, T1381A)
Sequence (P04275 with tags, fused parts or gaps T1381A): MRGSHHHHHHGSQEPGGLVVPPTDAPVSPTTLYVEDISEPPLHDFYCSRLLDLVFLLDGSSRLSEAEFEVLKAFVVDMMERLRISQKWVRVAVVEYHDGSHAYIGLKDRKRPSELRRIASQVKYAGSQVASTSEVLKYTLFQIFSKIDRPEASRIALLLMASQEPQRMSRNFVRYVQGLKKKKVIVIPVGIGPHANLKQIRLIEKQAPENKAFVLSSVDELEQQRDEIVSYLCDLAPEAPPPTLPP
Experiment: dot blot KD determination, human vWF A1 domain
Conditions: read-out: Human A1 KD; DNA SELEX 1 aptamers; competition dot blot, 100 nM protein, cold competitor titration
Reported Kd values are given for each entry in this list.
# output: number + unit

AMX199.C4: DNA SELEX 1 aptamer clone (nucleic acid, DNA, backbone not given here, DNA SELEX 1 aptamer clone) DNA: CTACCTACGATCTGACTAGCGGAATGAGGATGCTGATGGATTGCACAGGTCTGCTGGCTGCTTACTCTCATGTAGTTCC; 34 nM

The molecule listed as AMX199.B7: DNA SELEX 1 aptamer clone (nucleic acid, DNA, backbone not given here, DNA SELEX 1 aptamer clone) DNA: CTACCTACGATCTGACTAGCGGGATGAGAGTGCTGGTGGATTGCTCAGGTCTGCTGGCTGCTTACTCTCATGTAGTTCC has a reported Kd of 29 nM

Taken from patent US7998940B2.
